- System: P-gp
- method notes: MDCK permeability assay
- test settings: dog, MDCK
measure name: efflux ratio

entry_smiles=CCC(=O)NC1CCN(CCc2ccccc2)CC1 reported_value=1.48

###

- assayed system: α2B(h) (Homo sapiens)
- Sequence (P18089 whole entry): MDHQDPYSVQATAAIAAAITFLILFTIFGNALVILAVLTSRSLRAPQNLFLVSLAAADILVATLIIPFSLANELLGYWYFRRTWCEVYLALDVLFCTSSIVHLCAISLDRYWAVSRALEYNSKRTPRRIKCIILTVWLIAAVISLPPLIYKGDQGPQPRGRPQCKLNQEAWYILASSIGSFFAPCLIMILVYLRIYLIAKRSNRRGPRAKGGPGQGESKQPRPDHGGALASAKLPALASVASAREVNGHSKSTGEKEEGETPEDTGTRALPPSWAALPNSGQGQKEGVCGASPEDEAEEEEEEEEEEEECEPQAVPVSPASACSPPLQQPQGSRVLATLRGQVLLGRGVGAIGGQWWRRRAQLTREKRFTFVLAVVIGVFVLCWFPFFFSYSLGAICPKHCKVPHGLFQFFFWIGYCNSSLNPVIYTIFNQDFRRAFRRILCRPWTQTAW
- method notes: Cellular functional assay, agonist effect, α2B
- test settings: reference agonist; read-out: Reference EC50 Ref
pEC50: −log10 of the molar value.
measure name: pEC50

compound="Cc1cccc([C@H](C)c2c[nH]cn2)c1C [dexmedetc, reference compound]" measure_name=pEC50 reported_value=7.89

###

- assayed system: hERG (Homo sapiens)
- Sequence (Q12809 whole entry): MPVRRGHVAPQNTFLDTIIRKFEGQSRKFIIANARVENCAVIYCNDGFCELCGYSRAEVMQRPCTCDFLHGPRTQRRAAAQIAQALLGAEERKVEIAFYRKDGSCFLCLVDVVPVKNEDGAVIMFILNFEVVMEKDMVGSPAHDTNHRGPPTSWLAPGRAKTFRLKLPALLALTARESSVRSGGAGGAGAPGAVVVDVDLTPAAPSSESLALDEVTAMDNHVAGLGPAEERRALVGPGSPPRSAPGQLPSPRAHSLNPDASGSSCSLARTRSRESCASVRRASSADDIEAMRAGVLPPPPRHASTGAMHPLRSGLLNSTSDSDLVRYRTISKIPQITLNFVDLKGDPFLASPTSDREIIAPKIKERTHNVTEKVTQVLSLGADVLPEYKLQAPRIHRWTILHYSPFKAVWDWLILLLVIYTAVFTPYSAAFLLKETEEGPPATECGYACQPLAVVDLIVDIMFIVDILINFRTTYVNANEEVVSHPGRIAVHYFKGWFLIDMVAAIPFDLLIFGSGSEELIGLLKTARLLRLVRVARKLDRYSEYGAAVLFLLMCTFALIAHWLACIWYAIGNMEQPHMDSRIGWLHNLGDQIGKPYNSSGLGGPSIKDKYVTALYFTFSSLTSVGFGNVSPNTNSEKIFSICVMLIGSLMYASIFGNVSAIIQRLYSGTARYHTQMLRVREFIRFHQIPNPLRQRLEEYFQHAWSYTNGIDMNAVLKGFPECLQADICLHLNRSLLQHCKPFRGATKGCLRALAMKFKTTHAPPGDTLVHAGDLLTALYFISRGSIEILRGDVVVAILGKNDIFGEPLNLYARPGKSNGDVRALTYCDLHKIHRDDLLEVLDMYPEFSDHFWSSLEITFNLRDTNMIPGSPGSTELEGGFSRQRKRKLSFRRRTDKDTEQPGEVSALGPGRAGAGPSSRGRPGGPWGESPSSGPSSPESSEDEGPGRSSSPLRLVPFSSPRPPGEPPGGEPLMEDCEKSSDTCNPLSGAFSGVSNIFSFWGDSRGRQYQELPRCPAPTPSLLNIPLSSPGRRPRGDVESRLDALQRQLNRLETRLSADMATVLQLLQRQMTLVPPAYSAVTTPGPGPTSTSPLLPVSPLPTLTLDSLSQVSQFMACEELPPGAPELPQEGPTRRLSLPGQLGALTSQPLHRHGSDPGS
- method notes: hERG inhibition
- Format: cell-based
- test settings: human; at the top concentration of 25 micromolar
measure name: inhibition at 25 micromolar (%)

entry_smiles=CCC(=O)NC1CCN(CCc2ccccc2)CC1 measure_name="inhibition at 25 micromolar" units_label=% reported_value=32.5

###

- assayed system: hERG (Homo sapiens)
- method notes: hERG inhibition
- Type: cell-based
- test settings: concentration range tested up to 25 micromolar
- Protocol: Compound HCV-3 also was tested for hERG inhibition. Over the concentration range tested (up to 25 micromolar) no dose-response was obtained. […] The control compounds behaved as expected in the assay.
measure name: IC50

entry_smiles=CCC(=O)NC1CCN(CCc2ccccc2)CC1 measure_name=IC50 reported_value="> 25 µM"
